Hello, the source for this data is patent US20240109853A1, in case you need it.

- SUBJECT OF TEST: ALPK1 (Homo sapiens (Human), UniProt Q96QP1)
- Sequence (Q96QP1 whole entry): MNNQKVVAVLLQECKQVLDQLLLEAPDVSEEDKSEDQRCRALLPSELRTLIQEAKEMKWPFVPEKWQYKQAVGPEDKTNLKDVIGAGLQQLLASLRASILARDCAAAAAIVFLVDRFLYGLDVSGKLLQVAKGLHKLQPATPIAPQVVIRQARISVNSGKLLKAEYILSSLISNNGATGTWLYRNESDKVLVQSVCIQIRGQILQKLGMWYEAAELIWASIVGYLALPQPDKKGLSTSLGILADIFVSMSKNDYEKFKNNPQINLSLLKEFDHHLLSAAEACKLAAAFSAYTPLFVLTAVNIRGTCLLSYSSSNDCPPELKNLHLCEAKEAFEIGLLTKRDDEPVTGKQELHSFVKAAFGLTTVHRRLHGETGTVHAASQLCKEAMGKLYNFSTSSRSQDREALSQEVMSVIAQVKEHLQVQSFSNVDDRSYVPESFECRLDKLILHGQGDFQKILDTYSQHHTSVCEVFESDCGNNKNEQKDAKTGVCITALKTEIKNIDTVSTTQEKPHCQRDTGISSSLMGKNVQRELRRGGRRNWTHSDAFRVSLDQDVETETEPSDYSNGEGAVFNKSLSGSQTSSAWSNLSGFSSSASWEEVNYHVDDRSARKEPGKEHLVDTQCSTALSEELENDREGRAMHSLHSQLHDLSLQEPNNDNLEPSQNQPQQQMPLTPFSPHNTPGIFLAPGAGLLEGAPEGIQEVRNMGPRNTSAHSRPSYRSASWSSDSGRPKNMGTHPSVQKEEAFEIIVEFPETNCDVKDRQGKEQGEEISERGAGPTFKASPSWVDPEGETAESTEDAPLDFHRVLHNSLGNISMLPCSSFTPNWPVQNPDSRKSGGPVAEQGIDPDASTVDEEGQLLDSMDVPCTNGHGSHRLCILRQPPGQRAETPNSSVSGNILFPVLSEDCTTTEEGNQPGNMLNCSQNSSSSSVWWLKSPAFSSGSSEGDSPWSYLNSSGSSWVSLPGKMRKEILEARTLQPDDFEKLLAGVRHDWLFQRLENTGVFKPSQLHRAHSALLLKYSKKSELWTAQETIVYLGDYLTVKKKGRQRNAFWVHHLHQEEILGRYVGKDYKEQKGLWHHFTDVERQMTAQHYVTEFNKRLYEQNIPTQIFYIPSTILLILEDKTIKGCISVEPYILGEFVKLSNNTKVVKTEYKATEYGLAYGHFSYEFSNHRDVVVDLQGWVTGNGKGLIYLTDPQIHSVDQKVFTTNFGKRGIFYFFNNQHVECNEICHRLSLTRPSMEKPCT
- TEST PROTOCOL: ALPK1 in vitro kinase assay (HTRF of TIFA phosphorylation)
- Format: biochemical
RECORDED ENDPOINT: pIC50
pIC50 is defined as minus the log10 of a concentration measured in mol/L.

Challenge: Entry under review: COc1ccc(C(C)(C)c2csc(NC(=O)NCc3ccc(N4CCC(O)C4)cc3)n2)cc1 (stereo not shown) . Reported pIC50?
Response given: 6.57

---
Challenge: Entry under review: COCCOc1cc(CNC(=O)Nc2nc(C(C)(C)c3ccc(Br)cc3)cs2)ccc1N1CCNCC1 . Reported pIC50?
Response given: 6.74

Challenge: Try the molecule C#C[C@](C)(c1ccc(OC)cc1)c1csc(NC(=O)N2CC(CO)C2)n1
Response given: 6.16

Challenge: Try the molecule C#C[C@](C)(c1ccc(Cl)cc1)c1csc(NC(=O)NCCS(N)(=O)=O)n1
Response given: 6.57

---

- SUBJECT OF TEST: ALPK1 (Homo sapiens (Human))
- TEST PROTOCOL: ALPK1 in vitro kinase assay (HTRF of TIFA phosphorylation)
- Type: biochemical
RECORDED ENDPOINT: pIC50
pIC50 is defined as minus the log10 of a concentration measured in mol/L.

Example entries and their recorded answers appear below.
Challenge: Entry under review: O=C(NCc1cc(F)c(N2CCNCC2)c(F)c1)Nc1nc(C2(c3ccc(Br)cc3)CCCC2)cs1 . Reported pIC50?
Response given: 6.97

Challenge: Try the compound C#C[C@](C)(c1ccc(Br)cc1)c1csc(NC(=O)NCC(C)(C)O)n1 (stereo in doubt)
Response given: 6.78

Challenge: Try the compound COc1ccc(C(C)(C)c2csc(NC(=O)NCc3cnc(N4CCNCC4)nc3)n2)cc1
Response given: 7.80

Challenge: Try the compound COc1ccc(C(C)(C)c2csc(NC(=O)NCc3ccc(NCCO)nc3)n2)cc1 [Example A022]
Response given: 6.63

Now consider a different compound.
Challenge: Entry under review: C#CC(C)(c1ccc(Cl)cc1)c1csc(NC(=O)N2CCC(CO)C2)n1 (centres unmarked) . Reported pIC50?
Response given: 6.04

---

- System: ALPK1-dependent NFκB reporter gene activation in HEK293 cells stably expressing an NF-kB reporter (G9 cells)
- TEST PROTOCOL: NFκB gene reporter alkaline phosphatase assay
- Format: cell-based
- DETAILS: Homo sapiens, HEK293; read-out: NFkB assay IC50
RECORDED ENDPOINT: pIC50
pIC50 is defined as minus the log10 of a concentration measured in mol/L.

Example entries and their recorded answers appear below.
Challenge: Entry under review: C#C[C@](C)(c1ccc(Cl)cc1)c1csc(NC(=O)NC[C@H](O)CO)n1 . Reported pIC50?
Response given: 5.69

Challenge: Try the compound C#C[C@@](C)(c1ccc(Cl)cc1)c1csc(NC(=O)NC(CO)CO)n1 (stereo in doubt)
Response given: 5.94

Challenge: Try the compound C#CC(C)(c1ccc(Cl)cc1)c1csc(NC(=O)N2CCNCC2)n1 (stereo not shown)
Response given: 5.27

Now consider a different compound.
Challenge: Entry under review: CC(C)(c1ccc(Br)cc1)c1csc(NC(=O)NCc2ccc(N3CCNCC3)cc2Cl)n1 . Reported pIC50?
Response given: 5.82

---

- SUBJECT OF TEST: ALPK1 (Homo sapiens (Human), UniProt Q96QP1)
- TEST PROTOCOL: ALPK1 in vitro kinase assay (HTRF of TIFA phosphorylation)
- Format: biochemical
- DETAILS: ALPK1 2 nM, TIFA substrate, ADP-Heptose activator, HTRF readout
Recorded IC50 determines the group label, using low range: < 70 nM; mid range: ≥ 70 nM and < 300 nM; high range: ≥ 300 nM

Below are worked cases with known answers.
Challenge: Returns: class label. Input: COc1ccc(C(C)(C)c2csc(NC(=O)c3cccc(N4CCN(CCO)CC4)c3)n2)cc1
Response given: mid range

Challenge: Try the compound C#C[C@@](C)(c1ccc(OC)cc1)c1csc(NC(=O)c2c(F)cc(N3CCNCC3)cc2F)n1 (stereo in doubt) [Example C048]
Response given: low range

Challenge: Try the compound CN1CCN(c2cc(F)c(C(=O)Nc3nc(C4(c5ccc(Br)cc5)CCCC4)cs3)c(F)c2)CC1 [Example C030]
Response given: high range

Challenge: Try the compound C#C[C@](C)(c1ccc(Cl)cc1)c1csc(NC(=O)c2c(F)cc(N3CCN(C)CC3)cc2F)n1
Response given: low range

Challenge: Try the compound C#C[C@@](C)(c1ccc(Cl)cc1)c1csc(NC(=O)c2c(F)cc(N3CCC(N)C3)cc2F)n1 (stereo in doubt) [Example B087]
Response given: low range

Challenge: Try the compound C#C[C@](C)(c1ccc(F)cc1)c1csc(NC(=O)c2c(F)cc(N3CCC(N)C3)cc2F)n1 (stereo in doubt)
Response given: high range

---
Challenge: Returns: class label. Input: COc1ccc(C(C)(C)c2csc(NC(=O)c3ccc(OCCN4CCNCC4)cc3)n2)cc1
Response given: mid range

Challenge: Try the compound CC(C)(c1ccc(Br)cc1)c1csc(NC(=O)c2cnc(N3CCNCC3)nc2)n1
Response given: mid range

Challenge: Try the compound COc1ccc(C(C)(C)c2csc(NC(=O)c3ccc(N4CCC(O)C4)cc3)n2)cc1 (stereo not drawn)
Response given: high range

Challenge: Try the compound CC(C)(c1ccc(Br)cc1)c1csc(NC(=O)c2ccc(N3CCN(CCO)CC3)nc2)n1
Response given: mid range

Challenge: Try the compound COc1ccc(C(C)(C)c2csc(NC(=O)c3ccc(NCCO)cc3)n2)cc1 [Example B032]
Response given: mid range

Challenge: Try the compound C#CC(C)(c1ccc(Cl)cc1)c1csc(NC(=O)c2c(F)cc(N3CCN(C)CC3)cc2F)n1 (stereo not drawn)
Response given: low range

Challenge: Try the compound C#CC(C)(c1ccc(Cl)cc1)c1csc(NC(=O)c2ccc(N3CCNCC3)c(OC)c2)n1 (stereo not drawn)
Response given: mid range

---

- SUBJECT OF TEST: ALPK1 (Homo sapiens (Human))
- TEST PROTOCOL: ALPK1 in vitro kinase assay (HTRF of TIFA phosphorylation)
- Assay type: biochemical
# IC50 listing for each entry below
Please state the figure in nM; there is no need to write the unit.

Challenge: Entry under review: CC(C)(c1ccc(Br)cc1)c1csc(NC(=O)NCc2ccc(N3CCC(N)C3)nc2)n1 (centres unmarked) [Example A189] . Reported IC50?
Response given: 41

Challenge: Try the compound C#C[C@@](C)(c1ccc(OC)cc1)c1csc(NC(=O)NCCO)n1 [Example A170]
Response given: 8

Challenge: Try the compound CCCN1CCN(c2ccc(CNC(=O)Nc3nc(C(C)(C)c4ccc(OC)cc4)cs3)cc2C(N)=O)CC1 [Example A116]
Response given: 72

Challenge: Try the compound CC(C)(c1ccc(Br)cc1)c1csc(NC(=O)NCc2ccc(N3CCN(CCO)CC3)nc2)n1 [Example A010]
Response given: 200

Challenge: Try the compound COc1ccc(C(C)(C)c2csc(NC(=O)NCCCN3CCN(C)CC3)n2)cc1 [Example A142]
Response given: 180

---
Challenge: Entry under review: COc1ccc(C(C)(C)c2csc(NC(=O)NO)n2)cc1 [Example A144] . Reported IC50?
Response given: 154

Challenge: Try the compound C#C[C@@](C)(c1ccc(Cl)cc1)c1csc(NC(N)=O)n1 [Example A252]
Response given: 30

Challenge: Try the compound COc1ccc(C(C)(C)c2csc(NC(=O)NCCCN3CCC(O)C3)n2)cc1 (centres unmarked) [Example A135]
Response given: 112

---

- Test system: ALPK1-dependent NFκB reporter gene activation in HEK293 cells stably expressing an NF-kB reporter (G9 cells)
- TEST PROTOCOL: NFκB gene reporter alkaline phosphatase assay
- Type: cell-based
- DETAILS: Homo sapiens, HEK293; read-out: NFkB assay IC50
# pIC50 listing for each entry below
pIC50 is defined as minus the log10 of a concentration measured in mol/L.

Challenge: Entry under review: CNS(=O)(=O)[C@H]1C[C@@H](CNC(=O)Nc2nc(C(C)(C)c3ccc(OC)cc3)cs2)C1 . Reported pIC50?
Response given: 5.03

---
Challenge: Entry under review: C#C[C@](C)(c1ccc(Cl)cc1)c1csc(NC(N)=O)n1 . Reported pIC50?
Response given: 5.78

Challenge: Try the compound COc1ccc(C(C)(C)c2csc(NC(=O)NCc3ccc(N4CCNCC4)c(F)c3)n2)cc1
Response given: 6.06

Challenge: Try the compound C#C[C@@](C)(c1ccc(Br)cc1)c1csc(NC(=O)N2CC(CO)C2)n1
Response given: 6.13

Challenge: Try the compound C#C[C@@](C)(c1ccc(OC)cc1)c1csc(NC(=O)NCCO)n1
Response given: 6.34

Challenge: Try the compound C#C[C@](C)(c1ccc(Br)cc1)c1csc(NC(=O)N2CC(CO)C2)n1
Response given: 5.24

Challenge: Try the compound C#C[C@](C)(c1ccc(Cl)cc1)c1csc(NC(=O)N2CC(CO)C2)n1
Response given: 5.70

Challenge: Try the compound COc1ccc(C(C)(C)c2csc(NC(=O)NCc3ccc(C(=O)NC4CCNCC4)cc3)n2)cc1
Response given: 6.00

Challenge: Try the compound COc1ccc(C(C)(C)c2csc(NC(=O)NCc3ccc(C(=O)NC4CCN(C)CC4)nc3)n2)cc1
Response given: 6.00
